- Assay Name: basal S. cerevisiae growth modulation, no modifier, primary screen, OD600, strain BY4716, 24 h, basal condition (AID 1173)
- Condition Details: OD600, 24 h, called active from +8 up or from −8 down
Active and inactive are the calls of the source.
Valid outcomes are listed here; reply with one: t (active), f (inactive)

I would be grateful if you could indicate the recorded call for CC(C)C(=C=CC[C@@H](O)c1ccc(OCCO)cc1)C[C@@H](O)COCc1ccccc1 . f

I would be grateful if you could indicate the recorded call for CN(C)CCCC[C@@H]1NC(=O)[C@@H]2C[C@H](C(=O)NCCCCCCN)[C@H](c3cccc(OCCO)c3)N2C1=O . f

I would be grateful if you could indicate the recorded call for CC(CO)N1C(=O)[C@@H]2C3C(=O)OCCC/C=C\[C@H]3OC23C=CCN(C(C)(C)C)C(=O)[C@@H]13 (stereo not given in full) . f

I would be grateful if you could indicate the recorded call for C=CC(=C)[C@H]1Oc2ccccc2S(=O)(=O)N2CCC[C@@H]12 . f

I would be grateful if you could indicate the recorded call for COc1ccccc1CN1C(=O)c2ccccc2[C@@]2(Cc3ccccc3N(CC(C)C)C2=O)[C@@H]1c1ccc(CO)cc1 . f

* * *

- Test system: Inhibin beta A chain (activin A)
- Assay Name: INHBA (activin A) binders on microarrays, primary screen, biochemical, small-molecule microarray, 635 nm fluorescence scan (AID 1107);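 further: mouse activin A protein probed at 4.33 µg/mL on printed slides; score merges bound-protein fluorescence near 667 nm with spot signal-to-noise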
- Condition Details: small-molecule microarray binding, higher = more signal
Assay Readout: composite z-score
Please give the numeric answer without any surrounding text.

State measured composite z-score of the compound O=C1NC(=O)C2C1C=CC(C(O)c1cc(C(F)(F)F)cc(C(F)(F)F)c1)N2Nc1ccccn1 (stereo not given) with Inhibin beta A chain (activin A). 1.33

State measured composite z-score of the compound C[N+](C)(C)CCCC[C@@H]1NC(=O)[C@H]2C[C@@H](C(=O)NCCCCCCNC(=O)CS)[C@@H](c3cccc(OCCO)c3)N2C1=O with Inhibin beta A chain (activin A). -0.57

State measured composite z-score of the compound C[C@H]1C2[C@H](Cc3ccccc3)NC(=O)[C@]23C(=O)N[C@H](Cc2ccccc2)C(=O)N2CCC[C@H]2C(=O)NC/C=C\C/C=C/C3[C@@H]2O[C@]12C (stereo not given in full) with Inhibin beta A chain (activin A). 0.946

State measured composite z-score of the compound CCCC[C@@H]1C[C@H]1[C@@H](NC(=O)c1ccco1)c1ccccc1C(F)(F)F with Inhibin beta A chain (activin A). 1.49

State measured composite z-score of the compound COc1ccccc1CN1C(=O)c2ccccc2[C@@H](C(=O)NC2CC2)[C@@H]1c1ccc(CO)cc1 with Inhibin beta A chain (activin A). 0.633

State measured composite z-score of the compound C=CCOC(=O)[C@H]1[C@@H]2C(=O)O[C@@H](c3ccccc3)[C@@H](c3ccccc3)N2[C@@H](c2ccc(OCCOC(=O)[C@H]3C[C@H]4C(=O)N[C@@H](CCCC[N+](C)(C)C)C(=O)N4[C@H]3c3ccc(O)cc3)cc2)[C@]12C(=O)Nc1ccc(I)cc12 with Inhibin beta A chain (activin A). 0.225

State measured composite z-score of the compound CN(C)C(=O)[C@@]1(CCS(=O)(=O)c2ccccc2)COC(c2ccc(OCCCO)cc2)=N1 with Inhibin beta A chain (activin A). 1.04

State measured composite z-score of the compound C=CCN1C(=O)[C@@]2(CC=C)N=C(c3ccc(OCCCO)cc3)O[C@H]2c2ccccc21 with Inhibin beta A chain (activin A). 1.2

State measured composite z-score of the compound CCCCC(CC)C(O)C1C=CC2C(=O)N(Cc3ccccc3)C(=O)C2N1n1cnnc1 (stereo not given) with Inhibin beta A chain (activin A). 0.82
